B1: H2-Kb / F4 (parent complex)
chain 1: QQQVRQSPQSLTVWEGETAILNCSYEDSTFNYFPWYQQFPGEGPALLISIRSVSDKKEDGRFTIFFNKREKKLSLHITDSQPGDSATYFCAAMSNYNVLYFGSGTKLTVEP
chain 2: ETAVFQTPNYHVTQVGNEVSFNCKQTLGHDTMYWYKQDSKKLLKIMFSYNNKQLIVNETVPRRFSPQSSDKAHLNLRIKSVEPEDSAVYLCASSARQNSPLYFAAGTRLTVT
chain 3: not shown
chain 4: IQKTPQIQVYSRHPPENGKPNILNCYVTQFHPPHIEIQMLKNGKKIPKVEMSDMSFSKDWSFYILAHTEFTPTETDTYACRVKHDSMAEPKTVYWDRDM
chain 5: SIINFEKL

- Variants of: B1
- assay-remarks: % of reporter cells activated (NFAT-GFP), raw; further: test concentration or dose not given here
measure: ratio to parent

These recorded examples may help you get a feel for the data.
chain 5 S1E
0.029
chain 5 I2P
0.16
chain 5 E6A
0.05

a: chain 5 L8K
b: chain 5 E6L
When a and b are compared, which has the higher number for ratio to parent? Answer with the label corresponding to your selection.
a
